Just for reference, ChEMBL document CHEMBL5316373 is where these values come from.

# assayNotes: Stability of compound in mouse plasma assessed as compound remaining and measured after 2 hrs
# Assay type: ADME, cell-free
# Stability annotations
# number only, unit % dropped from output

CC(C)(C)[C@H](NC(=O)C(F)(F)F)C(=O)N1C[C@H]2[C@@H]([C@H]1C(=O)N[C@H](C#N)C[C@@H]1CCNC1=O)C2(C)C :: 91
N#C[C@H](C[C@@H]1CCNC1=O)NC(=O)[C@@H]1[C@H]2CCC[C@H]2CN1C(=O)[C@@H](NC(=O)C(F)(F)F)C1CCCCC1 :: 100
CC(C)(C)NC(=O)C(=O)[C@H](C[C@@H]1CCNC1=O)NC(=O)[C@@H]1[C@H]2CCC[C@H]2CN1C(=O)[C@@H](NC(=O)C(F)(F)F)C1CCCCC1 :: 106

--- query ---
Prompt: Which Stability value belongs to CC(C)(C)[C@H](NC(=O)C(F)(F)F)C(=O)N1C[C@@H]2CCC[C@@H]2[C@H]1C(=O)N[C@H](C#N)C[C@@H]1CCNC1=O ?
Response: 102
